Tested Target: TGFBR1 (human) (UniProt P36897)
Sequence (P36897 whole entry, looked up): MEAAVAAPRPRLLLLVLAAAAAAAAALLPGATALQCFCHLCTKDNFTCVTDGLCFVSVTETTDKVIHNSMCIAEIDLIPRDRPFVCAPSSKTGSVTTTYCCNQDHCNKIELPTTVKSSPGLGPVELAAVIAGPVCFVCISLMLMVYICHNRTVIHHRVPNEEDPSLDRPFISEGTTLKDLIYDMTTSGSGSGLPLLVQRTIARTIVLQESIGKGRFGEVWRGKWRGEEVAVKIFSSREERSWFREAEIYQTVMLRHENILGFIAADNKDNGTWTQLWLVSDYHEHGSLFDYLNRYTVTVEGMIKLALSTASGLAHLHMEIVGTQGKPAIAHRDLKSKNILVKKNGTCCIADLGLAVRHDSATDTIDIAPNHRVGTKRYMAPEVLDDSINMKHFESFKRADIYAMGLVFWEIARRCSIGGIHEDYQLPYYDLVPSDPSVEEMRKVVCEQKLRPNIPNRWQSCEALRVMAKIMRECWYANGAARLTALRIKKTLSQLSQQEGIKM
Protocol Summary: KINOMEscan competition binding
Assay Context: compound 10.0 µM
Assay Endpoint: kinase still bound, per cent of control (%)
Numbers only, in %.

COc1cc(N2CCN(C)CC2)ccc1Nc1nc(N)c(C(=O)c2c(Cl)cccc2Cl)s1 has a reported kinase still bound, per cent of control of 100

The compound listed as O=C(NC1CC1)c1cccc(-c2ccc3c(NC(=O)C4CC4)n[nH]c3c2)c1 has a reported kinase still bound, per cent of control of 77

Lab note: measured kinase still bound, per cent of control of C[C@@H](Oc1cc(-n2cnc3ccc(CN4CCN(C)CC4)cc32)sc1C(N)=O)c1ccccc1C(F)(F)F was 99

Batch request: kinase still bound, per cent of control for each of the following compounds.
1. CCC(=O)N1CCN(c2ccc(-n3c(=O)ccc4cnc5ccc(-c6cnc7ccccc7c6)cc5c43)cc2C(F)(F)F)CC1
2. C=CC(=O)Nc1cccc(Oc2nc(Nc3ccc(N4CCN(C)CC4)cc3OC)ncc2Cl)c1
3. Cc1ccc(C(=O)Nc2cccc(C(F)(F)F)c2)cc1Nc1cncc(C(N)=O)c1
4. Nc1ccc(-c2ccc3ncc4ccc(=O)n(-c5cccc(C(F)(F)F)c5)c4c3c2)cn1
5. CCN1CCN(Cc2ccc(Nc3ncc4c(n3)N(C)c3ccccc3C(=O)N4C)cc2C(F)(F)F)CC1
6. O=C1Nc2ccc(I)cc2/C1=C/c1cc(Br)c(O)c(Br)c1

1. 70
2. 100
3. 100
4. 100
5. 81
6. 10
